test system: Escherichia coli; test: Antibacterial activity against Escherichia coli after 18 hrs by microdilution assay; assay type: functional
Property measured: MIC

Query: Tell me its MIC given COc1c(NCCNc2ccccn2)c(F)c(N)c2c(=O)c(C(=O)O)cn(C3CC3)c12 as the entry.
Result: 9 µM

Query: For the compound Nc1c(F)c(NCCNc2ccccn2)c(F)c2c1c(=O)c(C(=O)O)cn2C1CCCC1 , report MIC.
Result: > 29 µM

Query: Dear colleague, please send me the reported MIC for COc1c(NCCNc2ccccn2)c(F)c(N)c2c(=O)c(C(=O)O)c[nH]c12 when you can.
Result: 25 µM

Query: Supply MIC value. Item: Nc1c(F)c(NCCNc2ccccn2)c2c3c1c(=O)c(C(=O)O)cn3C1(CCC1)CO2
Result: > 36 µM

Query: Report measured MIC; entry is CC(C)[C@H]1COc2c(NCCNc3ccccn3)c(F)c(N)c3c(=O)c(C(=O)O)cn1c23
Result: > 29 µM

Query: Note MIC for the compound shown: C[C@@H]1COc2c(NCCNc3ccccn3)c(F)c(N)c3c(=O)c(C(=O)O)cn1c23
Result: > 243 µM

Query: Could you please provide reported MIC for COc1c(NCCNc2ccccn2)c(F)c(N)c2c(=O)c(C(=O)O)cn(C)c12 ? Thanks!
Result: > 13 µM

Query: Supply recorded MIC for CC1(C)Cn2cc(C(=O)O)c(=O)c3c(N)c(F)c(NCCNc4ccccn4)c(c32)O1 here.
Result: > 37 µM

Query: Look up and report measured MIC for this entry: COc1c(NCCNc2ccccn2)c(F)c(N)c2c(=O)c(C(=O)O)cn(CCC(C)C)c12
Result: > 28 µM

Query: Using known records, supply MIC for C[C@H]1COc2c(NCCNc3ccccn3)c(F)c(N)c3c(=O)c(C(=O)O)cn1c23
Result: 4 µM

Query: Supply recorded MIC for CC1(C)COc2c(NCCNc3ccccn3)c(F)c(N)c3c(=O)c(C(=O)O)cn(c23)C1 here.
Result: > 7 µM

Query: Give the reported value of MIC for this record: Nc1c(F)c(NCCNc2ccccn2)c2c3c1c(=O)c(C(=O)O)cn3C1(CCCC1)CO2
Result: > 71 µM

###

target: Glycogen synthase kinase-3 beta (Homo sapiens, UniProt P49841); assay: Inhibition of human recombinant full length GSK3-beta after 1 hrs by luminescence assay
Sequence (P49841 whole entry): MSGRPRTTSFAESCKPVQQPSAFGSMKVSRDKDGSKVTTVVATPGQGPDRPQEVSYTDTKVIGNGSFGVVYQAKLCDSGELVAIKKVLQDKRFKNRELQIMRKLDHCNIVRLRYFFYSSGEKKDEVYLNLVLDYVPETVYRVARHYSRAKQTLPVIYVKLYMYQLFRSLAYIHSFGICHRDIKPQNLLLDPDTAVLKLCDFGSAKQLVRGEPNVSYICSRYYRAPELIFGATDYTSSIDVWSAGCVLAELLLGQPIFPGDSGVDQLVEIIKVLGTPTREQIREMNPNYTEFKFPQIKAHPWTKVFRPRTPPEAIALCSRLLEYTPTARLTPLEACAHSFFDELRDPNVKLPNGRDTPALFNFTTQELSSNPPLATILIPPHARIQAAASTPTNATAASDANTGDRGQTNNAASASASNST
Property measured: log10(IC50) (log10 of the value in nM)
Base-10 log of IC50, unit nM.

Query: Report log10(IC50) for C[C@@H]1COc2c(NCCNc3ccccn3)c(F)c(N)c3c(=O)c(C(=O)O)cn1c23
Result: 2.75

Query: Input COc1c(NCCNc2ccccn2)c(F)c(N)c2c(=O)c(C(=O)O)cn(CCC(C)C)c12 , output reported log10(IC50).
Result: 4.20

Query: Name the recorded log10(IC50) of the compound listed here: Nc1c(F)c(NCCCn2ccnc2)c(F)c2c1c(=O)c(C(=O)O)cn2C1CC1
Result: 1.65

Query: Hello, please tell me recorded log10(IC50) for this one: C[C@H]1COc2c(NCCNc3ccccn3)c(F)c(N)c3c(=O)c(C(=O)O)cn1c23
Result: 1.64

Query: Could you please provide reported log10(IC50) for Nc1c(F)c(NCCc2c[nH]c3ccccc23)c(F)c2c1c(=O)c(C(=O)O)cn2C1CC1 ? Thanks!
Result: 2.82

Query: Please indicate log10(IC50) recorded for COc1c(NCCNc2ccccn2)c(F)c(N)c2c(=O)c(C(=O)O)cn(C)c12
Result: 2.43

Query: Indicate its recorded log10(IC50); the compound in question is CC1(C)COc2c(NCCNc3ccccn3)c(F)c(N)c3c(=O)c(C(=O)O)cn(c23)C1
Result: 2.20

Query: Give recorded log10(IC50). Nc1c(F)c(NCCc2ccccc2)c(F)c2c1c(=O)c(C(=O)O)cn2C1CC1
Result: 2.64

###

target: UniProt:P49841; assay: Inhibition of human recombinant full length GSK3-beta after 1 hrs by luminescence assay
Property measured: pIC50
Units for pIC50: none; it is -log10 of a concentration expressed in mol/L.

Query: Kindly indicate its recorded pIC50. Item: Nc1c(F)c(NCCc2ccncc2)c(F)c2c1c(=O)c(C(=O)O)cn2C1CC1
Result: 7.00

Query: Give pIC50 for CC1(C)Cn2cc(C(=O)O)c(=O)c3c(N)c(F)c(NCCNc4ccccn4)c(c32)O1
Result: 6.36

Query: Give pIC50 for the following compound: COc1c(NCCNc2ccccn2)c(F)c(N)c2c(=O)c(C(=O)O)c[nH]c12
Result: 6.00

Query: // Input: COc1c(NCCNc2cccc3ccccc23)c(F)c(N)c2c(=O)c(C(=O)O)cn(C3CC3)c12 . Output its pIC50 only.
Result: 7.51
